Taken from patent US12091426B2.

# target or test system: HPK1 (Homo sapiens)
# Construct: A HiBiT tag was introduced by CRISPR on the N terminus of HPK1 in Jurkat cells; host or cells: Jurkat cells (ATCC TIB-152), monoclonal line with CRISPR knock-in of HiBiT at the endogenous HPK1 locus
# test protocol: HPK1 Cellular HiBit Degradation Assay
# Type: cell-based
# experimental parameters: Jurkat, HiBiT HPK1 Jurkat cells, 24 hrs; maximum degradation vs DMSO vehicle control; read-out: Dmax Category
# Method: HPK1 Cellular HiBit Degradation Assay A HiBiT tag was introduced by CRISPR on the N terminus of HPK1 in Jurkat cells (ATCC® TIB-152) to allow quantitation of HPK1 protein levels in a monoclonal human cell line. […] Cells were incubated for 10 min at room temperature and luminescence was read on an EnVision plate reader (Perkin Elmer, 0.1 sec per well). […] Percent HPK1 remaining per sample was calculated as follows: […]
test readout: Dmax

CC(C)n1cnc2cc(-c3ccc4c(c3)N([C@H]3C[C@@H](N5CCCCC5)C3)C(=O)C43CCN(C(=O)C4(C)CCN(C(=O)C5CCN(c6ccc(N7CCC(=O)NC7=O)cn6)CC5)CC4)CC3)nc(Nc3ccncc3F)c21 [Example 117]    > 85%

Continue with the compound presented below.
So for CC(C)n1cnc2cc(-c3ccc4c(c3)N([C@H]3C[C@@H](N5CCCCC5)C3)C(=O)C43CCN(C(=O)c4cc(C(=O)N5CCN(c6ccc7c(c6)C(=O)N(C6CCC(=O)NC6=O)C7=O)CC5)n(C)n4)CC3)nc(Nc3ccccc3F)c21 (mixture of isomers) [Example 146] , the logged Dmax turned out to be 70 to 85%

====

# target or test system: HPK1 (Homo sapiens, UniProt Q92918)
# Construct: A HiBiT tag was introduced by CRISPR on the N terminus of HPK1 in Jurkat cells; host or cells: Jurkat cells (ATCC TIB-152), monoclonal line with CRISPR knock-in of HiBiT at the endogenous HPK1 locus
# Sequence (Q92918 whole entry): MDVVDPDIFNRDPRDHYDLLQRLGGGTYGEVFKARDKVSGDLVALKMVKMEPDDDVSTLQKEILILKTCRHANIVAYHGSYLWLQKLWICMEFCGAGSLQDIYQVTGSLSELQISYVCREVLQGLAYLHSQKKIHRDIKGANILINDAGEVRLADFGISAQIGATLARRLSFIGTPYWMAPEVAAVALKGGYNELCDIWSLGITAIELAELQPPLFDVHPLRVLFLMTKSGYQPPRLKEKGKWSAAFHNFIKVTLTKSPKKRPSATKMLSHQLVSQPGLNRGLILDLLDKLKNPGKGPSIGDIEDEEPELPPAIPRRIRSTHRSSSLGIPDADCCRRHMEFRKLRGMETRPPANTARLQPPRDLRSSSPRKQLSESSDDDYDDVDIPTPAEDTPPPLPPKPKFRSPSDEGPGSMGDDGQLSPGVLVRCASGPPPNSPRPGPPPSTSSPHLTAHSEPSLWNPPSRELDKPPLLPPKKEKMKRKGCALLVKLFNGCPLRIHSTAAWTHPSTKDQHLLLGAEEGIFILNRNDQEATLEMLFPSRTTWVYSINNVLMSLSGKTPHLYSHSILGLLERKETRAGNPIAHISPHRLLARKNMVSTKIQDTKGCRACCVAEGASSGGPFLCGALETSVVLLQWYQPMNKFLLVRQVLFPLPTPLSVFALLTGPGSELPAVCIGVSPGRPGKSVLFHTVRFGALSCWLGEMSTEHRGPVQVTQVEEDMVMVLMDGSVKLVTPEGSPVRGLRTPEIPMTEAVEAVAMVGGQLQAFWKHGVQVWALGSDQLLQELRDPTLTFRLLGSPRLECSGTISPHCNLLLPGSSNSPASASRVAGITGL
# test protocol: HPK1 Cellular HiBit Degradation Assay
# Assay type: cell-based
# experimental parameters: HiBiT HPK1 Jurkat cells, 24 hrs; concentration at which 50% of HPK1 was remaining; read-out: DC50 Category
test readout: DC50

CC(C)n1cnc2cc(-c3ccc4c(c3)N([C@H]3C[C@@H](N5CCCCC5)C3)C(=O)C43CCN(C(=O)C4CCN(C(=O)[C@H]5CC[C@H](Oc6ccc(C7CCC(=O)NC7=O)cc6)CC5)CC4)CC3)nc(Nc3ccccc3F)c21 (mixture of isomers)    < 0.1 µM
CC(C)n1cnc2cc(-c3ccc4c(c3)N([C@H]3C[C@@H](N5CCCCC5)C3)C(=O)C43CCN(C(=O)C4(C)CCN(C(=O)C5CCN(c6ccc([C@H]7CCC(=O)NC7=O)cn6)CC5)CC4)CC3)nc(NC3CC3)c21 [Example 213]    < 0.1 µM
CC(C)n1cnc2cc(-c3ccc4c(c3)N([C@H]3C[C@@H](N5CCCCC5)C3)C(=O)C43CCN(C(=O)C4CCN(C(=O)[C@H]5CC[C@H](Nc6cc(C7CCC(=O)NC7=O)ccn6)CC5)CC4)CC3)nc(Nc3ccccc3F)c21 (mixture of isomers)    0.5 to 1 µM
CC(C)n1cnc2cc(-c3ccc4c(c3)N([C@H]3C[C@@H](N5C6CCC5COC6)C3)C(=O)C43CCN(C(=O)C4(C)CCN(C(=O)CC5CCN(c6ccc(C7CCC(=O)NC7=O)cc6)CC5)CC4)CC3)nc(NC3CC3)c21 (mixture of isomers)    0.5 to 1 µM
CC(C)n1cnc2cc(-c3ccc4c(c3)N([C@H]3C[C@@H](N5CCCCC5)C3)C(=O)C43CCN(C(=O)c4ccc(C(=O)N5CCN(c6ccc7c(c6)C(=O)N(C6CCC(=O)NC6=O)C7=O)CC5)cc4)CC3)nc(Nc3ccccc3F)c21 (mixture of isomers)    0.1 to 0.5 µM
CC(C)n1cnc2cc(-c3ccc4c(c3)N([C@H]3C[C@@H](N5CCCCC5)C3)C(=O)C43CCN(C(=O)C4(C)CCN(C(=O)C5CCN(c6ccc7c(c6)C(=O)N(C6CCC(=O)NC6=O)C7=O)CC5)CC4)CC3)nc(Nc3ccccc3F)c21 (some centres unmarked)    0.1 to 0.5 µM

So for CC(C)n1cnc2cc(-c3ccc4c(c3)N([C@H]3C[C@@H](N5CCCCC5)C3)C(=O)C43CCN(C(=O)[C@H]4CC[C@H](C(=O)N5CCC(N(C)c6ccc(C7CCC(=O)NC7=O)cc6)CC5)CC4)CC3)nc(Nc3ccncc3F)c21 (mixture of isomers) , the logged DC50 turned out to be < 0.1 µM

So for CC(C)n1cnc2cc(-c3ccc4c(c3)N([C@H]3C[C@@H](N5CCCCC5)C3)C(=O)C43CCN(C(=O)[C@H]4CC[C@H](C(=O)N5CCC(N(C)c6ccc(C7CCC(=O)NC7=O)cc6)CC5)CC4)CC3)nc(NC3CC3)c21 (mixture of isomers) , the logged DC50 turned out to be 0.1 to 0.5 µM
